The measurements presented in this section are drawn from patent US20220395464A1.

test details: Pharmacokinetics after single intravenous drip infusion, plasma LC-MS/MS
Assay type: in vivo, Philippine macaques
condition parameters: male, Philippine macaque, cynomolgus monkey, plasma, iv, 0.42 mg/kg, AST-3424-D6 single intravenous infusion, Table 15 heading 0.58 mg/kg (text: 0.42 mg/kg); plasma; read-out: T1/2, Mean (converted)
test readout: half-life (min)
Write down the numeric answer in min and omit the unit.

Query half-life for [2H]C([2H])([2H])N(C(=O)c1cccc(Oc2cc([C@H](C)OP(=O)(N3CC3)N3CC3)ccc2[N+](=O)[O-])c1)C([2H])([2H])[2H] [AST-3424-D6] 7.2

---

test details: Solubility study of AST-3424 (shaking at 25° C., HPLC content)
Assay type: physicochemical
condition parameters: phosphate buffer of pH 6.8, 25 °C, pH 6.8, aqueous buffer, thermodynamic from solid, pH 6.8 (Phosphate buffer), 4 h, read-out: Content (solubility test)
test readout: solubility at 4 h (mg/mL)
Write down the numeric answer in mg/mL and omit the unit.

Query solubility at 4 h for `C[C@H](OP(=O)(N1CC1)N1CC1)c1ccc([N+](=O)[O-])c(Oc2cccc(C(=O)N(C)C)c2)c1` 22.9

---

test details: Solubility study of AST-3424 (shaking at 25° C., HPLC content)
Format: physicochemical
condition parameters: phosphate buffer, 25 °C, pH 6.8, aqueous buffer, thermodynamic from solid, pH 6.8 (Phosphate buffer)
Method: An appropriate amount of AST-3424 (hereinafter called active pharmaceutical ingredients or API) was taken and placed in a suitable container containing 40 ml of the mentioned-above solutions (20 ml for organic solvents) respectively until excess oil droplets of AST-3424 existed in the solution. Samples were put in a constant temperature shaking incubator at 25° C. and shaken at a proper speed (100 rpm). […] It should be noted that the dilution ratio after test was accurately recorded. […]
test readout: solubility

Query solubility for `C[C@H](OP(=O)(N1CC1)N1CC1)c1ccc([N+](=O)[O-])c(Oc2cccc(C(=O)N(C)C)c2)c1` ~23 mg/mL

---

test details: Stability in hepatomicrosome with NADPH (LC-MS/MS)
Format: in vitro ADME, human
condition parameters: male, liver microsomes (hepatomicrosome); human hepatomicrosome; read-out: Stability parameter (t1/2)
Method: The compounds, hepatomicrosome and reduced coenzyme NADPH were mixed together. Besides, a final concentration of the hepatomicrosome was 0.5 mg/ml, and human, male and mixed types of the hepatomicrosome were purchased. A final concentration of the NADPH was 2 mM. Next, the preceding mixtures were incubated in buffer (100 mM KH2PO4—K2HPO4) at 37° C. for 0, 5, 15, 30, 45, and 60 minutes, respectively. […]
test readout: half-life (min)
Write down the numeric answer in min and omit the unit.

>  <compound>
[2H]C([2H])([2H])N(C(=O)c1cccc(Oc2cc([C@H](C)OP(=O)(N3CC3)N3CC3)ccc2[N+](=O)[O-])c1)C([2H])([2H])[2H] [AST-3424-D6]

>  <unit label>
min

>  <endpoint value>
19.9

$$$$

Now take the following compound into account.
Query half-life for C[C@H](OP(=O)(N1CC1)N1CC1)c1ccc([N+](=O)[O-])c(Oc2cccc(C(=O)N(C)C)c2)c1 [AST-3424] 11.4

---

test details: Stability in hepatomicrosome with NADPH (LC-MS/MS)
Type: in vitro ADME, human
condition parameters: human hepatomicrosome
test readout: Stability parameter k (elimination rate constant) (min⁻¹)
Write down the numeric answer in min⁻¹ and omit the unit.

>  <compound>
[2H]C([2H])([2H])N(C(=O)c1cccc(Oc2cc([C@H](C)OP(=O)(N3CC3)N3CC3)ccc2[N+](=O)[O-])c1)C([2H])([2H])[2H] [AST-3424-D6]

>  <endpoint value>
0.0349

$$$$

Now take the following compound into account.
Query Stability parameter k (elimination rate constant) for C[C@H](OP(=O)(N1CC1)N1CC1)c1ccc([N+](=O)[O-])c(Oc2cccc(C(=O)N(C)C)c2)c1 [AST-3424] 0.0606

---

test details: Solubility study of AST-3424 (shaking at 25° C., HPLC content)
Assay type: physicochemical
condition parameters: phosphate buffer of pH 6.8, 25 °C, pH 6.8, aqueous buffer, thermodynamic from solid, pH 6.8 (Phosphate buffer), 48 h, read-out: Content (solubility test)
test readout: solubility at 48 h (mg/mL)
Write down the numeric answer in mg/mL and omit the unit.

Query solubility at 48 h for C[C@H](OP(=O)(N1CC1)N1CC1)c1ccc([N+](=O)[O-])c(Oc2cccc(C(=O)N(C)C)c2)c1 [AST-3424] 22.1

---

test details: Pharmacokinetics after single intravenous drip infusion, plasma LC-MS/MS
Format: in vivo, Philippine macaques
condition parameters: male, Philippine macaque, cynomolgus monkey, plasma, iv, 0.42 mg/kg, AST-3424-D6 single intravenous infusion, Table 15 heading 0.58 mg/kg (text: 0.42 mg/kg); plasma; individual animals 101, 102, 103; read-out: Vz
test readout: Vd (L/kg)
Write down the numeric answer in L/kg and omit the unit.

Query Vd for [2H]C([2H])([2H])N(C(=O)c1cccc(Oc2cc([C@H](C)OP(=O)(N3CC3)N3CC3)ccc2[N+](=O)[O-])c1)C([2H])([2H])[2H] [AST-3424-D6] 0.234

---

test details: Pharmacokinetics after single intravenous drip infusion, plasma LC-MS/MS
Type: in vivo, Philippine macaques
condition parameters: male, Philippine macaque, cynomolgus monkey, plasma, iv, 0.58 mg/kg, AST-3424 0.58 mg/kg single intravenous infusion; plasma; read-out: AUC(0−∞), Mean
test readout: AUC(0-inf) (ng·h/mL)
Write down the numeric answer in ng·h/mL and omit the unit.

Query AUC(0-inf) for `C[C@H](OP(=O)(N1CC1)N1CC1)c1ccc([N+](=O)[O-])c(Oc2cccc(C(=O)N(C)C)c2)c1` 438

---

test details: Solubility study of AST-3424 (shaking at 25° C., HPLC content)
Type: physicochemical
condition parameters: alkaline borate buffer, 25 °C, pH 10, aqueous buffer, thermodynamic from solid, pH 10.0 (Alkaline borate buffer)
Procedure: An appropriate amount of AST-3424 (hereinafter called active pharmaceutical ingredients or API) was taken and placed in a suitable container containing 40 ml of the mentioned-above solutions (20 ml for organic solvents) respectively until excess oil droplets of AST-3424 existed in the solution. Samples were put in a constant temperature shaking incubator at 25° C. and shaken at a proper speed (100 rpm). […] It should be noted that the dilution ratio after test was accurately recorded. […]
test readout: solubility

Query solubility for C[C@H](OP(=O)(N1CC1)N1CC1)c1ccc([N+](=O)[O-])c(Oc2cccc(C(=O)N(C)C)c2)c1 [AST-3424] ~23 mg/mL

---

test details: Pharmacokinetics after single intravenous drip infusion, plasma LC-MS/MS
Type: in vivo, Philippine macaques
condition parameters: male, Philippine macaque, plasma, intravenous, 0.58 mg/kg, AST-3424 intravenous drip infusion 0.58 mg/kg; 0.5 hr; individual animals 101, 102, 103; read-out: Plasma-drug concentration
test readout: concentration at 0.5 h
Reply with the number and its unit after it.

Query concentration at 0.5 h for `C[C@H](OP(=O)(N1CC1)N1CC1)c1ccc([N+](=O)[O-])c(Oc2cccc(C(=O)N(C)C)c2)c1` 677 ng/mL

---

test details: Solubility study of AST-3424 (shaking at 25° C., HPLC content)
Format: physicochemical
condition parameters: phosphate buffer, 25 °C, pH 7.4, aqueous buffer, thermodynamic from solid, pH 7.4 (Phosphate buffer)
test readout: solubility

Query solubility for `C[C@H](OP(=O)(N1CC1)N1CC1)c1ccc([N+](=O)[O-])c(Oc2cccc(C(=O)N(C)C)c2)c1` ~23 mg/mL

---

test details: Pharmacokinetics after single intravenous drip infusion, plasma LC-MS/MS
Assay type: in vivo, Philippine macaques
condition parameters: male, cynomolgus monkey, plasma, iv, 0.58 mg/kg, AST-3424 0.58 mg/kg single intravenous infusion; plasma; read-out: Vss, Mean
Procedure: AST-3424 and AST-3424-D6 (i.e. the compound of formula I) were administered to Philippine macaques by intravenous drip infusion, and blood samples were collected at different appointed times. LC-MS/MS was used to determine concentrations of the test substances in plasma of the Philippine macaques after administration, and relevant pharmacokinetic parameters were calculated. […]
test readout: Vd
Reply with the number and its unit after it.

Query Vd for `C[C@H](OP(=O)(N1CC1)N1CC1)c1ccc([N+](=O)[O-])c(Oc2cccc(C(=O)N(C)C)c2)c1` 0.226 L/kg

---

test details: Solubility study of AST-3424 (shaking at 25° C., HPLC content)
Type: physicochemical
condition parameters: alkaline borate buffer, 25 °C, pH 10, aqueous buffer, thermodynamic from solid, pH 10.0 (Alkaline borate buffer), 4 h, read-out: Content (solubility test)
test readout: solubility at 4 h
Reply with the number and its unit after it.

Query solubility at 4 h for C[C@H](OP(=O)(N1CC1)N1CC1)c1ccc([N+](=O)[O-])c(Oc2cccc(C(=O)N(C)C)c2)c1 [AST-3424] 23.6 mg/mL
